# METHOD DESCRIPTION: MTT cell viability (cytotoxicity) assay on L929 cells
# Format: cell-based, mouse
# CONDITION SET: mouse, L929 mouse fibroblast cells, 7.81 µg/mL, 24 h, % of untreated cells

STRUCTURE SMILES STRING | viability at 24 h, 7.81 µg/mL / %
Cc1ccc(NC(=S)NNC(=O)c2[nH]cnc2C)cc1Cl | 91.5
Cc1nc[nH]c1C(=O)NNC(=S)Nc1cccc([N+](=O)[O-])c1 | 94.6
CCOc1ccc(NC(=S)NNC(=O)c2[nH]cnc2C)cc1 | 114
Cc1nc[nH]c1C(=O)NNC(=S)NCc1ccccc1 | 99.4
Cc1nc[nH]c1C(=O)NNC(=S)Nc1ccc([N+](=O)[O-])cc1 | 95.7
Cc1nc[nH]c1C(=O)NNC(=S)Nc1cccc(Cl)c1 | 94.1
COc1ccccc1NC(=S)NNC(=O)c1[nH]cnc1C | 91.9
Cc1nc[nH]c1C(=O)NNC(=S)Nc1cccc(F)c1 | 101
CCN(CC)c1ccc(NC(=S)NNC(=O)c2[nH]cnc2C)cc1 | 93.6
COc1cccc(NC(=S)NNC(=O)c2[nH]cnc2C)c1 | 88.6
Cc1ccccc1NC(=S)NNC(=O)c1[nH]cnc1C | 102
COc1ccc(NC(=S)NNC(=O)c2nc[nH]c2C)cc1 | 90.3
Cc1cccc(NC(=S)NNC(=O)c2[nH]cnc2C)c1 | 88.7
Cc1nc[nH]c1C(=O)NNC(=S)Nc1ccc(N(C)C)cc1 | 91.8
COc1ccc(NC(=S)NNC(=O)c2[nH]cnc2C)cc1OC | 105
Cc1nc[nH]c1C(=O)NNC(=S)Nc1ccccc1[N+](=O)[O-] | 101
Cc1nc[nH]c1C(=O)NNC(=S)Nc1c(C(C)C)cccc1C(C)C | 110
CC(=O)c1cccc(NC(=S)NNC(=O)c2[nH]cnc2C)c1 | 104
Cc1nc[nH]c1C(=O)NNC(=S)Nc1cc(F)ccc1F | 102
Cc1ccc(NC(=S)NNC(=O)c2[nH]cnc2C)cc1 | 91.7

====

# METHOD DESCRIPTION: MTT cell viability (cytotoxicity) assay on L929 cells
# Assay type: cell-based, mouse
# CONDITION SET: mouse, L929 mouse fibroblast cells, 15.63 µg/mL, 24 h, % of untreated cells

STRUCTURE SMILES STRING | viability at 24 h, 15.63 µg/mL / %
Cc1nc[nH]c1C(=O)NNC(=S)Nc1ccc(N(C)C)cc1 | 85.7
COc1ccc(NC(=S)NNC(=O)c2nc[nH]c2C)cc1 | 89.5
CCN(CC)c1ccc(NC(=S)NNC(=O)c2[nH]cnc2C)cc1 | 85.7
Cc1nc[nH]c1C(=O)NNC(=S)Nc1cc(F)ccc1F | 101
Cc1nc[nH]c1C(=O)NNC(=S)Nc1cccc(Cl)c1 | 93.5
Cc1nc[nH]c1C(=O)NNC(=S)Nc1c(C(C)C)cccc1C(C)C | 101
Cc1ccccc1NC(=S)NNC(=O)c1[nH]cnc1C | 100
Cc1nc[nH]c1C(=O)NNC(=S)Nc1ccc([N+](=O)[O-])cc1 | 95.1
COc1cccc(NC(=S)NNC(=O)c2[nH]cnc2C)c1 | 86.2
Cc1cccc(NC(=S)NNC(=O)c2[nH]cnc2C)c1 | 85.7
